The reported measurements were obtained from patent US4987150A.

So I've got pIC50 readings for androgen receptor (Mesocricetus auratus), take a look.
pIC50: −log10 of the molar value.

| molecule | pIC50 |
| --- | --- |
| O=c1c2c(O)cc(O)cc2oc2c(O)ccc(O)c12 [A] | 5.10 |
| O=c1c2ccccc2oc2cc(O)cc(O)c12 [G] | 4.28 |
| O=c1c2ccc(O)cc2oc2c(O)ccc(O)c12 [C] | 5.74 |
| O=c1c2cccc(O)c2oc2cc(O)cc(O)c12 [D] | 4.47 |
